Molecular target: T1, EsCas13d, nuclease-dead (Eubacterium siraeum, UniProt B0MS50, R295A;H300A;R849A;H854A)
T1 sequence: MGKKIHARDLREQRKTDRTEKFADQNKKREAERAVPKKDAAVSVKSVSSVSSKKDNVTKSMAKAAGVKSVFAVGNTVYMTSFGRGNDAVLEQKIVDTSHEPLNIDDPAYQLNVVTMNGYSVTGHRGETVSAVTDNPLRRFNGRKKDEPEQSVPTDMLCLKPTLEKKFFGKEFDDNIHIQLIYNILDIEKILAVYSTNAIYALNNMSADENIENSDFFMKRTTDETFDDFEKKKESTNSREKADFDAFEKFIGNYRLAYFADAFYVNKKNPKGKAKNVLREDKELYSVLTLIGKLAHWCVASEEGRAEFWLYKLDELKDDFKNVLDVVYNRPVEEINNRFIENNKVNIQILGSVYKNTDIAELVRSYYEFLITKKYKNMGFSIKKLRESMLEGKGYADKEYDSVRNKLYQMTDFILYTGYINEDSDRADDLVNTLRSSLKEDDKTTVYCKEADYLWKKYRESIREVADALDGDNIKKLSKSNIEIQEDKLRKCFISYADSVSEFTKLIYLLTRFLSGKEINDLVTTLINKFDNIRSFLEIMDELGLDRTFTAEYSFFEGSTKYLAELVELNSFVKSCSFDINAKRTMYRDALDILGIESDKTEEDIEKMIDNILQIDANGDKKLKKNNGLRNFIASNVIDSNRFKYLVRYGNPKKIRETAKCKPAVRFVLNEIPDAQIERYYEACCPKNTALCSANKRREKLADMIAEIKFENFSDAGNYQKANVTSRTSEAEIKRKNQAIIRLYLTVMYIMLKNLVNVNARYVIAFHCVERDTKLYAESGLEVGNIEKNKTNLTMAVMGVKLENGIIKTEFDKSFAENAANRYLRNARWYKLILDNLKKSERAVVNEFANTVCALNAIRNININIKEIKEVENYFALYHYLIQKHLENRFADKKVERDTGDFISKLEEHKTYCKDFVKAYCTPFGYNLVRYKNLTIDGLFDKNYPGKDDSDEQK
Assay: crRNA (strand 1, pre-loaded); Mg2+; 40 mM Tris-HCl pH 7.5, 150 mM NaCl, 6 mM MgCl2, 1 mM DTT, 0.1% Tween-20, 0.2 mg/ml BSA; 25 C; 10 min per concentration, then washed
Settings: tags: His6-TwinStrep-SUMO cleaved; N-terminal SNAP kept (SNAP-Surface 488); label: 3' end held by stalled T7 RNA polymerase
pKd: −log10 of the molar value.
Entries and their pKd
READOUT: pKd

• target 1 C2U,A14G (mixed) RNA 1: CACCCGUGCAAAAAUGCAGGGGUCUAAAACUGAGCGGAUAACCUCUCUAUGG RNA 2: GGGAAUGGAUCCACAUCUACGAAUUCGUACCAUAGAGGGGUUAUCCGCUUACCGAGAUCGGAAGAGCACACGU = 7.82
• target 1 MT 5'PFS CAC 3'PFS UCC (mixed) RNA 1: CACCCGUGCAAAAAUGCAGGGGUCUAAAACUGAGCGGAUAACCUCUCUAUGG RNA 2: GGGAAUGGAUCCACAUCUACGAAUUCCACCCAUAGAGAGGUUAUCCGCUCAUCCAGAUCGGAAGAGCACACGU = 7.69
• target 2 MT 5'PFS CAA 3'PFS AUC (mixed) RNA 1: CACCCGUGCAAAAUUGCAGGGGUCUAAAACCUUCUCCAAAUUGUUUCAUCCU RNA 2: GGGAAUGGAUCCACAUCUACGAAUUCCAAAGGAUGAAACAAUUUGGAGAAGAUCAGAUCGGAAGAGCACACGU = 8.62
• target 3 insU 3' of 1 (mixed) RNA 1: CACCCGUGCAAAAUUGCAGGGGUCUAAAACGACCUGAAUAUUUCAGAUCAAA RNA 2: GGGAAUGGAUCCACAUCUACGAAUUCGUUUUUGAUCUGAAAUAUUCAGGUCUUGCAGAUCGGAAGAGCACACGU = 7.07
